Where these numbers come from: patent US20230183352A1

- STUDY_SYSTEM: T1, Claudin 18.2 (CLDN18.2), expressed on CHOS-CLDN 18.2 / HEK293-CLDN 18.2 / HCC827-CLDN 18.2 cells (human, UniProt P56856-2 1-261)
- T1 construct: whole, on cells; The species is not repeated for the CHOS-CLDN 18.2 cells; also called claudin-18A2
- EXPERIMENT_DESCRIPTION: FACS, CHOS-CLDN18.2 cells, 20 µg/ml
QUANTITY_MEASURED: FACS reading
The answer should be a number; do not append a unit.

Task: Fill blank: measured FACS reading of the binder QP14651460 (antibody, human IgG1, kappa, V domains shown, Humanized from QP207208) VH: EVQLVQSGAEVKKPGASVKVSCKASGYTFTSYIMHWVRQAPGQGLEWIGYINPYNDGTKYNEKFKGRVTLTSDKSTSTVYMELSSLRSEDTAVYYCARLGFTTRNAMDYWGQGTLVTVSS VL: DIVMTQSPDSLAVSLGERATINCKSSQSLLNSGNQKNYLAWYQQKPGQPPKLLIYGASTRESGVPDRFSGSGSGTDFTLTISSLQAEDVAVYYCQNDHSYPFTFGQGTKLEIKR is ____.
Output: 174000
